Test: Cmax in male ICR (CD-1) mouse at 20 mg/kg, po by LC-MS/MS analysis
Format: ADME, organism-based
Settings: in vivo
value kind: Cmax (ng/mL)
Answers are plain numbers, in ng/mL.

Please report the recorded Cmax for CN1CCC(N(C)S(=O)(=O)NC(=O)Nc2c3c(cc4c2CCC4)CCC3)CC1 .
35500

---

Experiment: AUClast in male ICR (CD-1) mouse at 5 mg/kg, iv by LC-MS/MS analysis
Type: ADME, organism-based
Settings: in vivo
value kind: AUC(0-t) (ng·h/mL)
Give bare numbers, in ng·h/mL.

Please report the recorded AUC(0-t) for CN1CCC(N(C)S(=O)(=O)NC(=O)Nc2c3c(cc4c2CCC4)CCC3)CC1 .
14500

Attribution: ChEMBL document CHEMBL6109121
